Each entry below carries its reported T/C.
# System: BDF1 mice, P388 leukemia ip, median survival T/C
# ASSAY_INFO: NCI In Vivo Anticancer Drug Screen. Data for tumor model P388 Leukemia (intraperitoneal) in B6D2F1 (BDF1) mice
# CONDITION_PARAMETERS: endpoint: median survival time; dose: 400.0 mg/kg/injection; schedule: Q04DX003 (ip); vehicle: saline with Tween-80; higher = longer survival
Inconclusive results and toxic doses are left out.
PARAMETER: T/C

> print(dat)
                                    molecule                       experimental.system               val
 1                        NC(=S)S/C=C/C(=O)O  BDF1 mice, P388 leukemia ip, median survival T/C  115 % of control
 2  CC1C(=O)CCC2(C)CCC(C)(C)CC12 (stereo not given)  BDF1 mice, P388 leukemia ip, median survival T/C   95 % of control
 3  COC1CC(N=[N+]=[N-])C(OS(C)(=O)=O)C(C)O1 (stereo not given)  BDF1 mice, P388 leukemia ip, median survival T/C  101 % of control
 4  O=C1c2ccccc2S(=O)(=O)N1CC(O)COc1ccc(Cl)cc1 (stereo not given)  BDF1 mice, P388 leukemia ip, median survival T/C   95 % of control
 5  O=C1N=C(C(F)(F)F)N=C1c1[nH]c(C(F)(F)F)nc1O  BDF1 mice, P388 leukemia ip, median survival T/C   98 % of control
 6  C#CCOCC(CCl)OC(=O)Nc1ccccc1 (stereo not given)  BDF1 mice, P388 leukemia ip, median survival T/C  100 % of control
 7                C(/C=C\c1ccccc1)=Nc1ccccc1  BDF1 mice, P388 leukemia ip, median survival T/C  118 % of control
 8  COc1cc([C@@H]2Oc3cc([C@@H]4Oc5cc(O)cc(O)c5C(=O)[C@H]4O)ccc3O[C@H]2CO)ccc1O  BDF1 mice, P388 leukemia ip, median survival T/C   97 % of control
 9  O=C1CCC(=O)N1CC(O)COc1ccc(Cl)cc1 (stereo not given)  BDF1 mice, P388 leukemia ip, median survival T/C  100 % of control
10                COc1ccccc1OC(=O)Nc1ccccc1F  BDF1 mice, P388 leukemia ip, median survival T/C  100 % of control
11  COc1ccc(-c2c(C)c(C)[nH]c(=O)c2C(=O)O)c(OCc2ccccc2)c1OC  BDF1 mice, P388 leukemia ip, median survival T/C  117 % of control
12  Nc1nc(N)c2nc(SC34CC5CC(CC(C5)C3)C4)c(N)nc2n1  BDF1 mice, P388 leukemia ip, median survival T/C   94 % of control
13  O=C(NC(Cc1nn[nH]n1)C(=O)OCc1ccccc1)OCc1ccccc1 (stereo not given)  BDF1 mice, P388 leukemia ip, median survival T/C   87 % of control
14    O=[N+]([O-])c1ccccc1CSc1ncnc2nc[nH]c12  BDF1 mice, P388 leukemia ip, median survival T/C  116 % of control
15          C=C1CC2(CC(C)(C)CC(C)(C)C2)OC1=O  BDF1 mice, P388 leukemia ip, median survival T/C  106 % of control
16  O=S(=O)(F)c1ccc2nc(-c3cccc(Sc4ccccc4)c3)cc(Cl)c2c1  BDF1 mice, P388 leukemia ip, median survival T/C  100 % of control
17             CC(C)CCCCc1c[nH]c(=O)[nH]c1=O  BDF1 mice, P388 leukemia ip, median survival T/C  100 % of control
18        CN(C)c1ccc(NC(=O)Nc2cccc(Cl)c2)cc1  BDF1 mice, P388 leukemia ip, median survival T/C   95 % of control
19    CCCCc1[nH]nc2c1C(=O)C(Nc1ccccc1)=CC2=O  BDF1 mice, P388 leukemia ip, median survival T/C  100 % of control
20  O=c1cc(O)ccn1CC(O)c1ccc(Cl)s1 (stereo not given)  BDF1 mice, P388 leukemia ip, median survival T/C  119 % of control
21                   CCOC(=O)c1cc2sccc2[nH]1  BDF1 mice, P388 leukemia ip, median survival T/C  113 % of control
22                         NC(=S)c1ccc(N)nc1  BDF1 mice, P388 leukemia ip, median survival T/C  110 % of control
23   COc1ccc(C(CCl)(CCl)c2ccc(OC)c(C)c2)cc1C  BDF1 mice, P388 leukemia ip, median survival T/C  100 % of control
24                      CCOn1nnc2cc(Cl)ccc21  BDF1 mice, P388 leukemia ip, median survival T/C  106 % of control
25       CCOC(=O)N1Cc2cc3cc(OC)c(OC)cc3nc2C1  BDF1 mice, P388 leukemia ip, median survival T/C  105 % of control
